TARGET: CRFR1 (human CRF receptor 1, corticotropin-releasing factor receptor 1) (Homo sapiens, UniProt P34998)
Construct: receptor expressed in transfected CHO cells (Cerep)
Sequence (P34998 24-415): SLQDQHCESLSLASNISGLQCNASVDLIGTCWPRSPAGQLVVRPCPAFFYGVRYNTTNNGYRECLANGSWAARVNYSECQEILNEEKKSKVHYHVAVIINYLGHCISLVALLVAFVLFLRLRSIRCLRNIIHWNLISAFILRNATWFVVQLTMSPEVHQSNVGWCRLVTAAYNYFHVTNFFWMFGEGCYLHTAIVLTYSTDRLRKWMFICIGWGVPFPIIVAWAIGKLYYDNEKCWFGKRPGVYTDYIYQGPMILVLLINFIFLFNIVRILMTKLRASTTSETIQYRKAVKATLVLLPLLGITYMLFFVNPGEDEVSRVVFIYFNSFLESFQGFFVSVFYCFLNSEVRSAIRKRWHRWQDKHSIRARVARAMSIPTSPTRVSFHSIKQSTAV
ASSAY COMMENT: HTRF cAMP assay, antagonist mode, transfected CHO cells
From the text: HTRF cAMP assay, antagonist mode, transfected CHO cells on CRFR1 (human CRF receptor 1, corticotropin-releasing factor receptor 1)
pIC50: −log10 of the molar value.
METRIC NAME: pIC50

Example molecules with recorded pIC50:
CCCCCCC/C=C/C(=O)CCc1ccc(O)c(OC)c1 [[8]-Shogaol] | 4.13
COc1ccc(-c2cc(=O)c3c(OC)c(OC)c(OC)c(OC)c3o2)cc1 [Tangeretin] | 4.22
COc1ccc(-c2cc(=O)c3c(OC)c(OC)c(OC)c(OC)c3o2)cc1OC [Nobiletin] | 4.82

I: CC1(C)[C@@H](O)CC[C@]2(C)[C@H]3C(=O)C=C4[C@@H]5C[C@@](C)(C(=O)O)CC[C@]5(C)CC[C@@]4(C)[C@]3(C)CC[C@@H]12 [Glycyrrhetic acid]
II: COc1ccc([C@@H]2CC(=O)c3c(O)cc(O)cc3O2)cc1O [Hesperetin]
III: COc1c(CC=C(C)C)c(O)cc2oc(=O)c(-c3ccc(O)cc3O)cc12 [Glycycoumarin]
IV: O=C(/C=C/c1ccc(O)cc1)c1ccc(O)cc1O [Isoliquiritigenin]
Order the records by pIC50, with each subsequent value no larger than the one before. Enter labels, ranked according to the request. I, IV, III, II
(I: 4.85, IV: 4.55, III: 4.28, II: 3.89)
